- STUDY_TARGET: BRD4 bromo domain 1 [BRD4(1)] (Homo sapiens)
- Construct: N-terminally His6-tagged BRD4(1) (amino acids 67-152)
- TEST_PROTOCOL: BRD4(1)/acetylated peptide H4 binding assay (TR-FRET)
- TEST_SETTINGS: inhibition of interaction between His6-tagged BRD4(1) (amino acids 67-152) and acetylated histone H4 peptide
ENDPOINT: IC50 (nM)

{"columns": ["MOLECULE", "ENDPOINT_UNIT", "NUMERIC_READOUT"],
 "data": [
  ["CC(=O)N1CCC(NC(=O)c2ccc(Nc3ccc4c(n3)N(Cc3ccccc3)[C@H](C)C(=O)N4C)cc2)CC1", "nM", 153]
]}

(P) CC(C)N1CCN(S(=O)(=O)c2ccc(Nc3ccc4c(n3)N(C3CCCC3)[C@H](C)C(=O)N4C)cc2)CC1
(Q) CC(=O)N1CCC(NC(=O)c2ccc(Nc3ccc4c(n3)N(C3CCCCCC3)[C@H](C)C(=O)N4C)cc2)CC1
(R) COc1cc(C(=O)NC2CCC(O)CC2)ccc1Nc1ccc2c(n1)N(C1CCOCC1)[C@H](C)C(=O)N2C (some centres unmarked)
Prompt: List these items ordered by IC50, big to small. Form entry: labels listed in requested order.
Completion: R, Q, P

====

- STUDY_TARGET: BRD4 bromo domain 1 [BRD4(1)] (Homo sapiens, UniProt O60885)
- Construct: N-terminally His6-tagged BRD4(1) (amino acids 67-152)
- TEST_PROTOCOL: BRD4(1)/acetylated peptide H4 binding assay (TR-FRET)
- TEST_SETTINGS: inhibition of interaction between His6-tagged BRD4(1) (amino acids 67-152) and acetylated histone H4 peptide
pIC50: −log10 of the molar value.
ENDPOINT: pIC50

{"columns": ["COMPOUND", "pIC50"],
 "data": [
  ["C[C@@H]1C(=O)N(C)c2ccc(Nc3ccc(C(=O)NCCc4cccnc4)cc3)nc2N1C1CCOCC1 [Example 49]", 6.94],
  ["CC(C)N1c2nc(Nc3ccc(S(=O)(=O)N4CCOCC4)cc3)ccc2N(C)C(=O)[C@H]1C [Example 101]", 6.87],
  ["C[C@@H]1C(=O)N(C)c2ccc(Nc3ccc(C(=O)N4CC5(COC5)C4)cc3)nc2N1C1CCCCC1 [Example 69]", 6.79],
  ["COc1cc(C(=O)N2CC3(COC3)C2)ccc1Nc1ccc2c(n1)N(Cc1ccccc1)[C@H](C)C(=O)N2C [Example 83]", 6.88]
]}
